System: MALME-3M melanoma
Test: NCI tumour cell line growth inhibition, 48 h
Experimental Endpoint: TGI

The examples below pair each entry with its known result.
{"columns": ["Molecule", "Measured Result"],
 "data": [
  ["Cc1ccc(NC(=O)Cc2ccc(/C=C/C(=O)c3ncc[nH]3)cc2)cc1", "> 25 µM"],
  ["CCCCCc1nc2c(c3c1CCCC3)CCCC2", "25.7 µM"],
  ["C/C(=C\\c1ccccc1)C(=O)NCc1ccc(C(=O)NCCC(C)C)cc1", "> 100 µM"],
  ["O=[N+]([O-])c1ccc2[nH]nc(OCc3ccccn3)c2c1", "> 100 µM"],
  ["N=C(N)c1ccc(OCCOCCOc2ccc(C(=N)N)cc2)cc1", "> 100 µM"]
]}

Please report TGI for every entry that follows.
1. COc1ccccc1/C=C(\C#N)C(=O)c1ccccc1
2. CC(C)[C@H]1CC[C@H]2[C@@H](CC[C@H]3[C@](C)(CN)CCC[C@]23C)C1
3. Cn1ccc(C(=O)N2CCSC2=S)c(OCc2ccccc2)c1=O

> 100 µM
7.47 µM
> 100 µM
